assay_remarks: gradient 5% acetonitrile 3 min, to 50% in 2 min, to 85% in 15 min, held 3 min, 100 µL/min
condition_description: column: Zorbax Extend-C18 2.1 x 50 mm; eluents: water / acetonitrile, 0.1% formic acid
RP-LC retention time less than 900 s is Y; RP-LC retention time greater than or equal to 900 s is N.

INSERT INTO assay_data (compound, class_assignment) VALUES
  ('CCOc1cccc(CNc2c(-c3nc(C)no3)cnc3nc(C)ccc23)c1', 'Y'),
  ('CC(C)NC(=O)c1ccc2c(c1)nc(CN(C)C(=O)Nc1ccc3c(c1)OCO3)n2C', 'Y'),
  ('CSc1ccc(CNC(=O)c2cn3ccccc3n2)cc1', 'Y'),
  ('CC(C)CCC(=O)N1CCN(c2nc(CN3CCC(C)CC3)cs2)CC1', 'Y'),
  ('COc1cc(OC)cc(C(=O)N(C)CCc2noc(-c3ccc(C(=O)N4CCCC4)cc3)n2)c1', 'Y'),
  ('Cc1ccc(Nc2nc(-c3ccc(C)c(C)c3)cs2)nc1', 'Y'),
  ('CCCn1ccc2sc(C)c(C(=O)NCc3ccccc3Cl)c2c1=O', 'N'),
  ('O=C(Nc1ccc2c(c1)N(S(=O)(=O)c1ccccc1)CCC2)c1ccc2c(c1)OCO2', 'Y'),
  ('O=C(c1[nH]c2ccccc2c1Sc1ccc(Cl)cc1)N1CCN(c2ccccn2)CC1', 'Y'),
  ('Cc1ccc(-c2nnc(-c3nn(C)c4c3CN(S(=O)(=O)c3ccc(Cl)cc3)CC4)o2)cc1', 'N'),
  ('O=C(NCc1nc(-c2ccccc2)no1)c1csc(-c2cnccn2)n1', 'Y'),
  ('O=C(CSc1ccc(N2CCCC2)nn1)Nc1ccc(Cl)cc1', 'Y'),
  ('CCOc1ccccc1-c1noc(Cn2c(=O)n(C(C)CC)c(=O)c3ccccc32)n1 (stereo not given)', 'N'),
  ('COc1ccc(-c2nc(CC3CCNC3)no2)cc1 (stereo not given)', 'Y'),
  ('CCOC(=O)c1ccc(NS(=O)(=O)c2cc3n(c2)CCN(CC)C3=O)cc1', 'Y'),
  ('CC(C)N1C(=O)c2cccnc2Sc2cc(NC(=O)c3ccc(Cl)s3)ccc21', 'N'),
  ('O=C(Cc1nnc(-c2ccc3ncccc3c2)o1)Nc1ccc(Cl)cc1', 'Y'),
  ('c1cnc2c(c1)ccc1ncccc12', 'Y'),
  ('Cc1cccc(CNC(=O)c2nnc(-c3ccc(S(=O)(=O)N4CCC(C)CC4)cc3)o2)c1', 'N'),
  ('CC(C)c1ccc(N2C=C(C#N)S(=O)(=O)c3ccccc32)cc1', 'N');

* * *

assay_remarks: gradient 5% acetonitrile 3 min, to 50% in 2 min, to 85% in 15 min, held 3 min, 100 µL/min
condition_description: column: Zorbax Extend-C18 2.1 x 50 mm; eluents: water / acetonitrile, 0.1% formic acid
Hi, to clarify the labels: Condition met covers RP-LC retention time from 900 s upward, Condition not met covers anything below 900 s.

INSERT INTO measurements (compound, class_assignment) VALUES
  ('CCn1ccc2sc(C)c(C(=O)NCCC(C)C)c2c1=O', 'Condition not met'),
  ('COc1ccc(S(=O)(=O)N2CC=C(c3cn(C)c4ncccc34)CC2)cc1Cl', 'Condition met'),
  ('Cc1cccc(N2CCN(C(=O)CC3COc4ccccc4NC3=O)CC2)c1C (stereo not given)', 'Condition not met'),
  ('CC1=C(c2ccc(C)cc2)S(=O)(=O)N=C1N1CCCN(C(=O)c2ccco2)CC1', 'Condition not met'),
  ('Cc1ccccc1Cn1cc(-c2ccncc2)cc1C(=O)NCc1ccccc1', 'Condition not met'),
  ('COc1ccccc1NC(=O)Cn1c(C)nc2c(sc3nc(-c4ccccc4)ccc32)c1=O', 'Condition met'),
  ('COc1ccc(-c2cc3nc(C)cc(N4CCN(c5ccccn5)CC4)n3n2)cc1OC', 'Condition not met'),
  ('Cc1ccc(CNC(=O)CCC2CCCN(S(=O)(=O)c3ccccc3C)C2)cc1 (stereo not given)', 'Condition met'),
  ('COCc1nncn1C1CCN(S(=O)(=O)c2ccccc2Cl)CC1', 'Condition not met');

Source listed as the METLIN SMRT retention time set (Domingo-Almenara et al. 2019).
